Test system: Clostridium sporogenes DSM 1664
assay-text: growth (OD595) fold change vs plate DMSO controls (fold change (ratio)); higher = more growth
setup-conditions: 5 µM; incubation time: 27 h, anaerobic, 37 °C
Where a name gives a salt, the structure may show the parent alone.
Answer each item with its documented growth.
Please reply with the value in numeric form only.

Entry C[C@]1(Cn2ccnn2)[C@H](C(=O)O)N2C(=O)C[C@H]2S1(=O)=O [Tazobactam] : reported growth = ?
1.01

Entry Cc1ncc([N+](=O)[O-])n1CC(C)O (stereo not given) [Secnidazole] : reported growth = ?
0.156

Entry N[C@@H](C(=O)N[C@@H]1C(=O)N2C(C(=O)O)=C(Cl)CC[C@H]12)c1ccccc1 [Loracarbef] : reported growth = ?
-0.0473

Entry CC(=O)Oc1ccccc1C(=O)Nc1ncc([N+](=O)[O-])s1 [Nitazoxanide] : reported growth = ?
0.809

Entry CC(C)/N=c1\cc2n(-c3ccc(Cl)cc3)c3ccccc3nc-2cc1Nc1ccc(Cl)cc1 [Clofazimine] : reported growth = ?
0.64

Entry Cc1cc(C(C#N)c2ccc(Cl)cc2)c(Cl)cc1NC(=O)c1cc(I)cc(I)c1O (stereo not given) [Closantel] : reported growth = ?
0.749

Entry CC=CC1=C(C(=O)O)N2C(=O)[C@@H](NC(=O)[C@H](N)c3ccc(O)cc3)[C@H]2SC1 [Cefprozil] : reported growth = ?
0.79

Entry Oc1c(Cl)cc(Cl)c(Cl)c1Cc1c(O)c(Cl)cc(Cl)c1Cl [Hexachlorophene] : reported growth = ?
0.711

Entry CC(=O)OCC1=C(C(=O)O)N2C(=O)[C@@H](NC(=O)Cc3cccs3)[C@H]2SC1 [Cephalothin sodium salt] : reported growth = ?
-0.0266

Entry O=C1NCCN1c1ncc([N+](=O)[O-])s1 [Niridazole] : reported growth = ?
0.258
